measured target: T1, RepB OBD (origin binding domain), wt (Streptococcus plasmid pMV158, UniProt P13921 1-131)
T1 sequence: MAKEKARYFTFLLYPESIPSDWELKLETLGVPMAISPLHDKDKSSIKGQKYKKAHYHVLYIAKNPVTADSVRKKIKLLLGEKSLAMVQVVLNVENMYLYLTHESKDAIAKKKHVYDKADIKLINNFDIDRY
assay text: SPR; HBS-EP pH 7.4, 150 mM NaCl; Results text names 1DDR, but Methods, Table S1 and Fig 3 legend name DDRC; EMSA: 20 mM Tris-HCl pH 8.0, 5 mM DTT, 300 mM NaCl, 20 nM DNA, 20 min 25 C; footprinting same buffer; SPR: 10 mM HEPES pH 7.4, 150 mM NaCl, 3 mM EDTA, 0.005% P20
measurement setup: protein: recombinant; tags: none; label: 5'-Cy5 (top) for EMSA; 5'-biotin for SPR; blunt

binder: DDRC (dsDNA) DNA 1: CTTTTCGGCGACTTTTCGG DNA 2: CCGAAAAGTCGCCGAAAAG
Kd: 220 nM
